Below, each entry is listed alongside its reported pKi.
TGT: P2Y purinoceptor 12 (Homo sapiens)
Sequence (Q9H244 whole entry): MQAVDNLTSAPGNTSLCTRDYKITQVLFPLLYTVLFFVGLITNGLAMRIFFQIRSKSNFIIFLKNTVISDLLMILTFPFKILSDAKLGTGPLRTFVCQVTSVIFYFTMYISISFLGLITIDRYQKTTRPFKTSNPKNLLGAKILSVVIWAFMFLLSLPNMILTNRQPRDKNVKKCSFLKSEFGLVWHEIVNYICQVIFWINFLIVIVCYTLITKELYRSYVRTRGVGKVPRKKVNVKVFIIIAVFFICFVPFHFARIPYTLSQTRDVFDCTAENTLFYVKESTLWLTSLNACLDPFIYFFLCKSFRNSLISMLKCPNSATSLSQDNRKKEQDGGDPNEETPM
METHOD NOTES: Displacement of [33P]ADP from human recombinant P2Y12 receptor expressed in CHO cells
Scale note: pKi = -log10(concentration in M).

Below: 3 compounds and their reported pKi.
structure_as_smiles=CCCCOC(=O)N1CCN(C(=O)[C@H](CCC(=O)O)NC(=O)c2cc(OCC3CCN(C(=O)C(F)(F)F)CC3)cc(-c3ccccc3)n2)CC1 readout=pKi result_number=8.00
structure_as_smiles=CCCCCOC(=O)N1CCN(C(=O)[C@H](CCC(=O)O)NC(=O)c2cc(C(=O)NCCCOC)cc(-c3ccccc3)n2)CC1 readout=pKi result_number=8.21
structure_as_smiles=CCCCOC(=O)N1CCN(C(=O)[C@H](CCC(=O)O)NC(=O)c2cc(OC3CCN(C(=O)OCC)CC3)cc(-c3ccccc3)n2)CC1 readout=pKi result_number=7.70

In: Query: pKi; subject: CCCCCOC(=O)N1CCN(C(=O)[C@H](CCC(=O)O)NC(=O)c2cc(C(=O)NC)cc(-c3ccccc3)n2)CC1
Out: 8.00

In: Now consider CCCCCOC(=O)N1CCN(C(=O)[C@H](CCC(=O)O)NC(=O)c2cc(OC(=O)N3CCC(OCC)CC3)cc(-c3ccccc3)n2)CC1 .
Out: 8.22

In: Consider next the compound CCCCCCOC(=O)N1CCN(C(=O)[C@H](CCC(=O)O)NC(=O)c2cc(N3CCC(N)CC3)cc(-c3ccccc3)n2)CC1 in the same way.
Out: 8.48

In: Further, for CCCCCOC(=O)N1CCN(C(=O)[C@H](CCC(=O)O)NC(=O)c2cc(C(=O)N(C)CCCC)cc(-c3ccccc3)n2)CC1 ?
Out: 8.24

In: CCCCCOC(=O)N1CCN(C(=O)[C@H](CCC(=O)O)NC(=O)c2cc(C(=O)NC3CCOCC3)cc(-c3ccccc3)n2)CC1 , same question.
Out: 8.34

In: Next: CCCCCOC(=O)N1CCN(C(=O)[C@H](CCC(=O)O)NC(=O)c2cc(C(=O)N3CCN(C)CC3)cc(-c3ccccc3)n2)CC1
Out: 8.24

In: Consider next the compound CCCCCOC(=O)N1CCN(C(=O)[C@H](CCC(=O)O)NC(=O)c2cc(N3CCC(CO)CC3)cc(-c3ccccc3)n2)CC1 in the same way.
Out: 8.62

In: Try this compound next: CCCCCOC(=O)N1CCN(C(=O)[C@H](CCC(=O)O)NC(=O)c2cc(C(=O)NCCC)cc(-c3ccccc3)n2)CC1
Out: 7.96

* * *

METHOD NOTES: Half life in Sprague-Dawley rat at 2 mg/kg, iv and 5 mg/kg, po
Assay type: ADME, organism-based
TEST SETTINGS: in vivo
Entries get a class label from measured half-life. See ranges: one (below 20 min), two (20 min to below 40 min), three (40 min or more)

Use the examples below as a reference point.
structure_as_smiles=CCOC(=O)N1CCN(C(=O)[C@H](CCC(=O)O)NC(=O)c2cc(N3CCOCC3)cc(-c3ccccc3)n2)CC1 class_assignment=three
structure_as_smiles=CCCCCOC(=O)N1CCN(C(=O)[C@H](CCC(=O)O)NC(=O)c2cc(N3CCC(CN(C)C)CC3)cc(-c3ccccc3)n2)CC1 class_assignment=one
structure_as_smiles=CCCCCOC(=O)N1CCN(C(=O)[C@H](CCC(=O)O)NC(=O)c2cc(OCC3CCN(C(C)C)CC3)cc(-c3ccccc3)n2)CC1 class_assignment=two
structure_as_smiles=CCCCCOC(=O)N1CCN(C(=O)[C@H](CCC(=O)O)NC(=O)c2cc(N3CCC(N)CC3)cc(-c3ccccc3)n2)CC1 class_assignment=one
structure_as_smiles=CCCCCOC(=O)N1CCN(C(=O)[C@H](CCC(=O)O)NC(=O)c2cc(OC(=O)N3CCOCC3)cc(-c3ccccc3)n2)CC1 class_assignment=three

Now examine the next entry.
In: Pick a category. Item: CCCNc1cc(C(=O)N[C@@H](CCC(=O)O)C(=O)N2CCN(C(=O)OCC)CC2)nc(-c2ccccc2)c1
Out: two

* * *

Documented pIC50 across a set of molecules
METHOD NOTES: Antiplatelet aggregation activity against adenosine diphosphate-induced human platelet rich plasma assessed as inhibition of platelet aggregation by turbidimetric method
Type: functional
TEST SETTINGS: Homo sapiens, Platelet, Plasma
As a rule, pIC50 stands for the negative log10 of the concentration, concentration in M.

molecule=CCCCCOC(=O)N1CCN(C(=O)[C@H](CCC(=O)O)NC(=O)c2cc(C(=O)NC)cc(-c3ccccc3)n2)CC1 readout=pIC50 result_number=5.17

In: Entry CCCCCOC(=O)N1CCN(C(=O)[C@H](CCC(=O)O)NC(=O)c2cc(OCCO)cc(-c3ccccc3)n2)CC1 : reported pIC50 = ?
Out: 4.92

In: Moving on to the next molecule: CCOC(=O)N1CCN(C(=O)[C@H](CCC(=O)O)NC(=O)c2cc(N3CCOCC3)cc(-c3ccccc3)n2)CC1
Out: 4.60

In: Please give the result for CCCCCOC(=O)N1CCN(C(=O)[C@H](CCC(=O)O)NC(=O)c2cc(OC3CCN(C(C)C)CC3)cc(-c3ccccc3)n2)CC1 too.
Out: 6.32

In: # repeat for CCCCCOC(=O)N1CCN(C(=O)[C@H](CCC(=O)O)NC(=O)c2cc(OCC3CCN(C(C)C)CC3)cc(-c3ccccc3)n2)CC1
Out: 6.42

In: Another: CCOC(=O)N1CCN(C(=O)[C@H](CCC(=O)O)NC(=O)c2cc(OCCN)cc(-c3ccccc3)n2)CC1
Out: 5.12

In: Entry CCCCCOC(=O)N1CCN(C(=O)[C@H](CCC(=O)O)NC(=O)c2cc(C(=O)N(C)CCCOC)cc(-c3ccccc3)n2)CC1 please
Out: 6.20

In: Same read-out for CCCCOC(=O)N1CCN(C(=O)[C@H](CCC(=O)O)NC(=O)c2cc(NCCOC)cc(-c3ccccc3)n2)CC1 ?
Out: 5.49

In: Same for CCCCCCOC(=O)N1CCN(C(=O)[C@H](CCC(=O)O)NC(=O)c2cc(N3CCC(CN)CC3)cc(-c3ccccc3)n2)CC1
Out: 5.80

In: Lookup CCCCCOC(=O)N1CCN(C(=O)[C@H](CCC(=O)O)NC(=O)c2cc(C(=O)N3CCN(C)CC3)cc(-c3ccccc3)n2)CC1
Out: 6.28

In: Then CCCCCOC(=O)N1CCN(C(=O)[C@H](CCC(=O)O)NC(=O)c2cc(N3CCC(N4CCCC4)CC3)cc(-c3ccccc3)n2)CC1 ?
Out: 5.92

In: Okay, and CCCCOC(=O)N1CCN(C(=O)[C@H](CCC(=O)O)NC(=O)c2cc(OCCC3CCCNC3)cc(-c3ccccc3)n2)CC1 (stereo partly specified) ?
Out: 6.00

In: Again, but for CCCCCOC(=O)N1CCN(C(=O)[C@H](CCC(=O)O)NC(=O)c2cc(OCC3CCN(C(=O)OCC)CC3)cc(-c3ccccc3)n2)CC1
Out: 5.13

In: # repeat for CCCCCOC(=O)N1CCN(C(=O)[C@H](CCC(=O)O)NC(=O)c2cc(OCCOC)cc(-c3ccccc3)n2)CC1
Out: 5.37

In: Also need CCCCCOC(=O)N1CCN(C(=O)[C@H](CCC(=O)O)NC(=O)c2cc(C(=O)N3CCOCC3)cc(-c3ccccc3)n2)CC1 , thanks.
Out: 6.15

In: Please do the same for CCCCOC(=O)N1CCN(C(=O)[C@H](CCC(=O)O)NC(=O)c2cc(N3CCOCC3)cc(-c3ccccc3)n2)CC1 as well.
Out: 5.14

* * *

METHOD NOTES: Antiplatelet aggregation activity against adenosine diphosphate-induced human platelet rich plasma assessed as inhibition of platelet aggregation by chronolog PRP aggregometry assay
TEST SETTINGS: read-out: IC50(app)
READOUT: IC50 (µM)
# output: bare number, implied unit µM

In: I would be grateful if you could share the reported IC50 for CCCCCOC(=O)N1CCN(C(=O)[C@H](CCC(=O)O)NC(=O)c2cc(N3CCC(COC)CC3)cc(-c3ccccc3)n2)CC1 .
Out: 1.8

* * *

METHOD NOTES: Antiplatelet aggregation activity against adenosine diphosphate-induced human platelet rich plasma assessed as inhibition of platelet aggregation by turbidimetric method
Type: functional
TEST SETTINGS: Homo sapiens, Platelet, Plasma
Cut-off 8 µM on IC50: below means True, at or above means False.

Solved entries:
compound=CCCCCOC(=O)N1CCN(C(=O)[C@H](CCC(=O)O)NC(=O)c2cc(NC(=O)NCC3CCNCC3)cc(-c3ccccc3)n2)CC1 class_assignment=True
compound=CCCCCOC(=O)N1CCN(C(=O)[C@H](CCC(=O)O)NC(=O)c2cc(NC(=O)OCCOC)cc(-c3ccccc3)n2)CC1 class_assignment=False
compound=CCCCOC(=O)N1CCN(C(=O)[C@H](CCC(=O)O)NC(=O)c2cc(OC(=O)N(C)CC3CCOCC3)cc(-c3ccccc3)n2)CC1 class_assignment=True

In: Lab note: confirm whether the reported IC50 for this compound is below 8 µM, equality not counting. compound: CCOC(=O)N1CCN(C(=O)[C@H](CCC(=O)O)NC(=O)c2cc(NCCO)cc(-c3ccccc3)n2)CC1
Out: False

In: Now consider CC(=O)N1CCN(C(=O)[C@H](CCC(=O)O)NC(=O)c2cccc(-c3ccccc3)n2)CC1 and answer again.
Out: False

In: Repeat with CCCCCOC(=O)N1CCN(C(=O)[C@H](CCC(=O)O)NC(=O)c2cc(CCCCN(C)C)cc(-c3ccccc3)n2)CC1
Out: True

In: Would you kindly repeat that for CCCCOc1cc(C(=O)N[C@@H](CCC(=O)O)C(=O)N2CCN(C(=O)OCC)CC2)nc(-c2ccccc2)c1 ?
Out: False

In: Similarly, O=C(O)CC[C@H](NC(=O)c1cccc(-c2ccccc2)n1)C(=O)N1CCN(C(=O)OCC2CCCC2)CC1 ?
Out: False

In: Now the compound CCCCC(=O)N1CCN(C(=O)[C@H](CCC(=O)O)NC(=O)c2cccc(-c3ccccc3)n2)CC1
Out: False

In: Now consider CCCCCOC(=O)N1CCN(C(=O)[C@H](CCC(=O)O)NC(=O)c2cc(NC(=O)N3CCCCC3)cc(-c3ccccc3)n2)CC1 .
Out: False

In: Another compound to check: CCCCCOC(=O)N1CCN(C(=O)[C@H](CCC(=O)O)NC(=O)c2cc(OCCN)cc(-c3ccccc3)n2)CC1
Out: True

In: Note, next up: CCCCCOC(=O)N1CCN(C(=O)[C@H](CCC(=O)O)NC(=O)c2cc(NC(=O)N3CCN(C)CC3)cc(-c3ccccc3)n2)CC1
Out: False

In: Check CCCCCOC(=O)N1CCN(C(=O)[C@H](CCC(=O)O)NC(=O)c2cc(OC(=O)N(C)C3CCOC3)cc(-c3ccccc3)n2)CC1 (stereo partly specified) too.
Out: True

In: Same lookup for CCCCCCOC(=O)N1CCN(C(=O)[C@H](CCC(=O)O)NC(=O)c2cc(OCCOC)cc(-c3ccccc3)n2)CC1 , please.
Out: False

In: Okay, and COCC(=O)N1CCN(C(=O)[C@H](CCC(=O)O)NC(=O)c2cccc(-c3ccccc3)n2)CC1 ?
Out: False

In: Here is the next compound: CCCCCOC(=O)N1CCN(C(=O)[C@H](CCC(=O)O)NC(=O)c2cc(OCC3CCNCC3)cc(-c3ccccc3)n2)CC1
Out: True
